- system.name: Survivin full length (UniProt O15392 1-142)
- Sequence (O15392 whole entry): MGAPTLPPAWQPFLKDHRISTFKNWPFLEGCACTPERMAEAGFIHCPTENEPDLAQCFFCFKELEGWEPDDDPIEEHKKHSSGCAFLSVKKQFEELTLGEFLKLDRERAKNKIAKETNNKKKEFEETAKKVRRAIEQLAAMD
- test.method.notes: ITC

{"binder": "AKER [Sgo1_(AKER) peptide]", "unit.descriptor": "µM", "Kd": 11.6}
